From: ChEMBL document CHEMBL4513149

- Test system: Escherichia coli
- conditionInfo: Concentration 20 uM; ASSAY_TEST Inhibition of Bacterial Growth; detection method Absorption (OD600); MEDIA CAMHB; plate type 384well; NBS; CORNING #3640; time 18 hr
- Description: Antibacterial activity against Escherichia coli ATCC 25922 (CO-ADD:GN_001); MIC in CAMBH media using NBS plates, by OD(600)
Results with a measured potency or affinity are listed apart.
measurementType: Inhibition (%)
Numbers only; they are read as %.

get_value(item= CNc1snc(C)c1C(=O)NCCOc1ccc(OC)cc1 , readout=Inhibition) returns 5.8

The measured Inhibition associated with Nc1ncnc2[nH]nc(Cc3cccc4ccccc34)c12 reads 7.05

Kindly note the recorded Inhibition for Cc1cc(C(=O)Nc2ccc(-c3ccccc3)cc2)no1 , which is 12.13
